System: 885724-159-R-J1-PDC complex spheroid viability
Experiment: Anticancer human tumor 885724-159-R-J1-PDC patient-derived pancreatic adenocarcinoma cell line growth inhibition [GQUAD]
Settings: second compound 10 µM; first compound 0.00999 µM; hits give low values
ENDPOINT_NAME: viability, T/C (%)

INSERT INTO assay_data (compound, units_text, observed) VALUES
  ('Cn1ncnc1[C@H]1c2n[nH]c(=O)c3cc(F)cc(c23)N[C@@H]1c1ccc(F)cc1 + Cc1[nH]c2ccc(F)cc2c1-c1nc2c3cccnc3c3ncccc3c2[nH]1', '%', 73.6),
  ('CC[C@@]1(O)C(=O)OCc2c1cc1n(c2=O)Cc2cc3c(CN(C)C)c(O)ccc3nc2-1 + Cc1cnc(CNC(=O)c2c(=O)c3ccc(N4CCCN(C)CC4)nc3n3c2sc2ccccc23)cn1', '%', 72.7),
  ('Cn1ncnc1[C@H]1c2n[nH]c(=O)c3cc(F)cc(c23)N[C@@H]1c1ccc(F)cc1 + CN(C)c1ccc(Nc2c3ccc(NC(=O)CCN4CCCC4)cc3nc3cc(NC(=O)CCN4CCCC4)ccc23)cc1', '%', 78);

* * *

Catalogue of viability, T/C readings, one per entry.
System: 885724-159-R-J1-PDC complex spheroid viability
Assay: Anticancer human tumor 885724-159-R-J1-PDC cell line growth inhibition [GQUAD];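 further: spheroids exposed to agents for seven days before readout; percent of vehicle control viability where 100% = DMSO wells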
Conditions: second compound 1 µM; first compound 0.00316 µM; hits give low values
ENDPOINT_NAME: viability, T/C (%)

INSERT INTO assay_data (molecule, target, endpoint_name, observed) VALUES
  ('Cn1ncnc1[C@H]1c2n[nH]c(=O)c3cc(F)cc(c23)N[C@@H]1c1ccc(F)cc1 + Cc1cnc(CNC(=O)c2c(=O)c3ccc(N4CCCN(C)CC4)nc3n3c2sc2ccccc23)cn1', '885724-159-R-J1-PDC complex spheroid viability', 'viability, T/C', 85.6),
  ('Cc1[nH]c2ccccc2c1CCNCc1ccc(/C=C/C(=O)NO)cc1 + Cc1cnc(CNC(=O)c2c(=O)c3ccc(N4CCCN(C)CC4)nc3n3c2sc2ccccc23)cn1', '885724-159-R-J1-PDC complex spheroid viability', 'viability, T/C', 78.6),
  ('CC[C@@]1(O)C(=O)OCc2c1cc1n(c2=O)Cc2cc3c(CN(C)C)c(O)ccc3nc2-1 + Cc1cnc(CNC(=O)c2c(=O)c3ccc(N4CCCN(C)CC4)nc3n3c2sc2ccccc23)cn1', '885724-159-R-J1-PDC complex spheroid viability', 'viability, T/C', 84.1),
  ('CC[C@@]1(O)C(=O)OCc2c1cc1n(c2=O)Cc2cc3c(CN(C)C)c(O)ccc3nc2-1 + Cc1[nH]c2ccc(F)cc2c1-c1nc2c3cccnc3c3ncccc3c2[nH]1', '885724-159-R-J1-PDC complex spheroid viability', 'viability, T/C', 75.7),
  ('Cn1ncnc1[C@H]1c2n[nH]c(=O)c3cc(F)cc(c23)N[C@@H]1c1ccc(F)cc1 + CN(C)c1ccc(Nc2c3ccc(NC(=O)CCN4CCCC4)cc3nc3cc(NC(=O)CCN4CCCC4)ccc23)cc1', '885724-159-R-J1-PDC complex spheroid viability', 'viability, T/C', 75.7),
  ('CCc1c2c(nc3ccc(O)cc13)-c1cc3c(c(=O)n1C2)COC(=O)[C@]3(O)CC + Cc1cnc(CNC(=O)c2c(=O)c3ccc(N4CCCN(C)CC4)nc3n3c2sc2ccccc23)cn1', '885724-159-R-J1-PDC complex spheroid viability', 'viability, T/C', 78.6),
  ('Cn1ncnc1[C@H]1c2n[nH]c(=O)c3cc(F)cc(c23)N[C@@H]1c1ccc(F)cc1 + Cc1[nH]c2ccc(F)cc2c1-c1nc2c3cccnc3c3ncccc3c2[nH]1', '885724-159-R-J1-PDC complex spheroid viability', 'viability, T/C', 68.4);

* * *

System: 885724-159-R-J1-PDC complex spheroid viability
Experiment: Anticancer human tumor 885724-159-R-J1-PDC cell line growth inhibition [GQUAD];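 further: spheroids exposed to agents for seven days before readout; percent of vehicle control viability where 100% = DMSO wells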
Settings: second compound 0.0316 µM; first compound 0.1 µM; hits give low values
Text: DNA G-quadruplex Stabilizer Agents in Combinations in Complex Spheroids A high-throughput screen of multi-cell type tumor spheroids was designed to identify active combinations of DNA G-quadruplex stabilizer agents and targeted small molecules. […] Compounds. […] If the clinical Cmax for an agent had not been determined, the highest concentration tested was 10 microM. […]
Recorded measurements of viability, T/C, one per entry
ENDPOINT_NAME: viability, T/C (%)

INSERT INTO measurements (molecule, endpoint_name, observed) VALUES
  ('Cc1cccc(N(C)C(=O)C2C(O)CCN2c2nc(C)cc(C(F)(F)F)c2C#N)c1 (centres undefined) + CN(C)c1ccc(Nc2c3ccc(NC(=O)CCN4CCCC4)cc3nc3cc(NC(=O)CCN4CCCC4)ccc23)cc1', 'viability, T/C', 98),
  ('CC(C)(O)C1CCC(Nc2ccc3ncc(-c4cccc(C(F)(F)F)c4)n3n2)CC1 (centres undefined) + CN(C)c1ccc(Nc2c3ccc(NC(=O)CCN4CCCC4)cc3nc3cc(NC(=O)CCN4CCCC4)ccc23)cc1', 'viability, T/C', 98),
  ('COc1ncnc(C2CC2)c1-c1ncc2cnn(Cc3ccc(-c4nc(C(F)(F)F)cn4C(C)C)cc3)c2n1 + Cc1[nH]c2ccc(F)cc2c1-c1nc2c3cccnc3c3ncccc3c2[nH]1', 'viability, T/C', 91.4),
  ('CC(=O)O[C@H]1C(=O)[C@@]2(C)[C@H]([C@H](OC(=O)c3ccccc3)[C@]3(O)C[C@H](OC(=O)[C@H](O)[C@@H](NC(=O)c4ccccc4)c4ccccc4)C(C)=C1C3(C)C)[C@]1(OC(C)=O)CO[C@@H]1C[C@@H]2O + CN(C)c1ccc(Nc2c3ccc(NC(=O)CCN4CCCC4)cc3nc3cc(NC(=O)CCN4CCCC4)ccc23)cc1', 'viability, T/C', 82.8),
  ('CC(=O)O[C@H]1C(=O)[C@@]2(C)[C@H]([C@H](OC(=O)c3ccccc3)[C@]3(O)C[C@H](OC(=O)[C@H](O)[C@@H](NC(=O)c4ccccc4)c4ccccc4)C(C)=C1C3(C)C)[C@]1(OC(C)=O)CO[C@@H]1C[C@@H]2O + Cc1[nH]c2ccc(F)cc2c1-c1nc2c3cccnc3c3ncccc3c2[nH]1', 'viability, T/C', 76.5),
  ('COc1ncnc(C2CC2)c1-c1ncc2cnn(Cc3ccc(-c4nc(C(F)(F)F)cn4C(C)C)cc3)c2n1 + CN(C)c1ccc(Nc2c3ccc(NC(=O)CCN4CCCC4)cc3nc3cc(NC(=O)CCN4CCCC4)ccc23)cc1', 'viability, T/C', 101),
  ('COc1cccc2c1C(=O)c1c(O)c3c(c(O)c1C2=O)CC(O)(C(=O)CO)CC3OC1CC(N)C(O)C(C)O1 (centres undefined) + Cc1cnc(CNC(=O)c2c(=O)c3ccc(N4CCCN(C)CC4)nc3n3c2sc2ccccc23)cn1', 'viability, T/C', 99.5),
  ('Cc1cccc(N(C)C(=O)C2C(O)CCN2c2nc(C)cc(C(F)(F)F)c2C#N)c1 (centres undefined) + Cc1cnc(CNC(=O)c2c(=O)c3ccc(N4CCCN(C)CC4)nc3n3c2sc2ccccc23)cn1', 'viability, T/C', 107),
  ('O=C(c1cc(Cc2n[nH]c(=O)c3ccccc23)ccc1F)N1CCN(C(=O)C2CC2)CC1 + CN(C)c1ccc(Nc2c3ccc(NC(=O)CCN4CCCC4)cc3nc3cc(NC(=O)CCN4CCCC4)ccc23)cc1', 'viability, T/C', 93.1);

* * *

Test system: 885724-159-R-J1-PDC complex spheroid viability
Assay: Anticancer human tumor 885724-159-R-J1-PDC cell line growth inhibition [GQUAD]; active = viability on the fitted dose curve at most 10% of control; inactive = the rest;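 further: spheroids exposed to agents for seven days before readout; percent of vehicle control viability where 100% = DMSO wells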
Details: second compound 3.16 µM; first compound 0.316 µM
Classes used: active, inactive

INSERT INTO results (molecule, target, cat) VALUES
  ('CC1COCCN1c1cc(-c2ccnn2C)c2ccnc(-c3ccn[nH]3)c2n1 (stereo unspecified) + CN(C)c1ccc(Nc2c3ccc(NC(=O)CCN4CCCC4)cc3nc3cc(NC(=O)CCN4CCCC4)ccc23)cc1', '885724-159-R-J1-PDC complex spheroid viability', 'inactive'),
  ('O=c1[nH]cc(F)c(=O)[nH]1 + Cc1cnc(CNC(=O)c2c(=O)c3ccc(N4CCCN(C)CC4)nc3n3c2sc2ccccc23)cn1', '885724-159-R-J1-PDC complex spheroid viability', 'inactive'),
  ('COc1cc(C2c3cc4c(cc3C(OC3OC5COC(C)OC5C(O)C3O)C3COC(=O)C23)OCO4)cc(OC)c1O (stereo unspecified) + Cc1[nH]c2ccc(F)cc2c1-c1nc2c3cccnc3c3ncccc3c2[nH]1', '885724-159-R-J1-PDC complex spheroid viability', 'inactive'),
  ('CCCS(=O)(=O)Nc1ccc(F)c(C(=O)c2c[nH]c3ncc(-c4ccc(Cl)cc4)cc23)c1F + CN(C)c1ccc(Nc2c3ccc(NC(=O)CCN4CCCC4)cc3nc3cc(NC(=O)CCN4CCCC4)ccc23)cc1', '885724-159-R-J1-PDC complex spheroid viability', 'inactive'),
  ('CC1COCCN1c1cc(C2(S(C)(=N)=O)CC2)nc(-c2ccnc3[nH]ccc23)n1 (stereo unspecified) + Cc1cnc(CNC(=O)c2c(=O)c3ccc(N4CCCN(C)CC4)nc3n3c2sc2ccccc23)cn1', '885724-159-R-J1-PDC complex spheroid viability', 'inactive'),
  ('CCc1c2c(nc3ccc(O)cc13)-c1cc3c(c(=O)n1C2)COC(=O)[C@]3(O)CC + Cc1cnc(CNC(=O)c2c(=O)c3ccc(N4CCCN(C)CC4)nc3n3c2sc2ccccc23)cn1', '885724-159-R-J1-PDC complex spheroid viability', 'active'),
  ('COc1ncnc(C2CC2)c1-c1ncc2cnn(Cc3ccc(-c4nc(C(F)(F)F)cn4C(C)C)cc3)c2n1 + CN(C)c1ccc(Nc2c3ccc(NC(=O)CCN4CCCC4)cc3nc3cc(NC(=O)CCN4CCCC4)ccc23)cc1', '885724-159-R-J1-PDC complex spheroid viability', 'inactive'),
  ('CCc1c2c(nc3ccc(O)cc13)-c1cc3c(c(=O)n1C2)COC(=O)[C@]3(O)CC + CN(C)c1ccc(Nc2c3ccc(NC(=O)CCN4CCCC4)cc3nc3cc(NC(=O)CCN4CCCC4)ccc23)cc1', '885724-159-R-J1-PDC complex spheroid viability', 'inactive'),
  ('Cc1[nH]c2ccccc2c1CCNCc1ccc(/C=C/C(=O)NO)cc1 + Cc1[nH]c2ccc(F)cc2c1-c1nc2c3cccnc3c3ncccc3c2[nH]1', '885724-159-R-J1-PDC complex spheroid viability', 'inactive'),
  ('CC[C@@]1(O)C(=O)OCc2c1cc1n(c2=O)Cc2cc3c(CN(C)C)c(O)ccc3nc2-1 + Cc1[nH]c2ccc(F)cc2c1-c1nc2c3cccnc3c3ncccc3c2[nH]1', '885724-159-R-J1-PDC complex spheroid viability', 'inactive'),
  ('CC1COCCN1c1cc(C2(S(C)(=N)=O)CC2)nc(-c2ccnc3[nH]ccc23)n1 (stereo unspecified) + CN(C)c1ccc(Nc2c3ccc(NC(=O)CCN4CCCC4)cc3nc3cc(NC(=O)CCN4CCCC4)ccc23)cc1', '885724-159-R-J1-PDC complex spheroid viability', 'inactive');
